Numbers sourced from patent US20230257396A1.

Target: kinases (Homo sapiens)
Construct: purchased Eurofins/DiscoveRx; host or cells: E. coli BL21-derived host (T7 phage display) for most kinases; HEK-293 for the rest
Sequence (P07949 29-1114): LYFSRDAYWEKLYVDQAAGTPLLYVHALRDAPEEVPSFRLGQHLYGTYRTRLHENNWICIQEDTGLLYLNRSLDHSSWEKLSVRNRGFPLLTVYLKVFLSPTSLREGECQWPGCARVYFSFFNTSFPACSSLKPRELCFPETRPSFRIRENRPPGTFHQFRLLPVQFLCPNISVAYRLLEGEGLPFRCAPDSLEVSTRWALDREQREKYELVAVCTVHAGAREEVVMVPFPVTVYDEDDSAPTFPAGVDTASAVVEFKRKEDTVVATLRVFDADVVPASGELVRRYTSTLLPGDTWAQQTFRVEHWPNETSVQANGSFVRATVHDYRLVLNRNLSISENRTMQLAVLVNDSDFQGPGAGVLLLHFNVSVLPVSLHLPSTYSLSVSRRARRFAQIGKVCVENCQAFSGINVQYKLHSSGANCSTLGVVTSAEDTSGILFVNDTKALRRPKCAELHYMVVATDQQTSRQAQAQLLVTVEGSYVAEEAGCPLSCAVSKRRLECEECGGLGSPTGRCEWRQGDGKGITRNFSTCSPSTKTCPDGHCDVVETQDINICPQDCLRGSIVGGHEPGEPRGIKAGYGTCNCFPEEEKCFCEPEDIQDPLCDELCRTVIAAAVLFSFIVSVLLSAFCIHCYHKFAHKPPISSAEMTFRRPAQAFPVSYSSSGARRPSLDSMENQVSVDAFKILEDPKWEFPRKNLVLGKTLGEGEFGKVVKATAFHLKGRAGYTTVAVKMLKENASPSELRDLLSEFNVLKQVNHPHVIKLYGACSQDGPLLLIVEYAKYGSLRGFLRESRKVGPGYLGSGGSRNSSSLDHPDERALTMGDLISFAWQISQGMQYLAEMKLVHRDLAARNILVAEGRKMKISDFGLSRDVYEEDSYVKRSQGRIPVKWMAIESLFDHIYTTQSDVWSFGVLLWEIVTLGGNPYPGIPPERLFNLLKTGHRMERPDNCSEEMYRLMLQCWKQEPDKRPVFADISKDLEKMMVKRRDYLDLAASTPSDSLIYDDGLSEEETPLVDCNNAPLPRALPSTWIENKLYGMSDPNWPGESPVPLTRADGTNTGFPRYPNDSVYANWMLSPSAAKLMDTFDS
Assay: KINOMEscan kinase binding assay (Eurofins/DiscoveRx), % Ctrl
Settings: 1 μM; RET
measurement kind: % Ctrl, RET
Please answer in the form of a number followed by its unit of measurement.

Solved entries:
Cc1cc2c([nH]1)/C=C1\C(=O)Nc3ccc(cc31)-c1ccnn1CCOCCNC2=O [Ex.39] : 85 % Ctrl
Cc1cc2c([nH]1)/C=C1\C(=O)Nc3ccc(cc31)-c1ccnn1CCOCCN(C)C2=O [Ex. 41] : 34 % Ctrl

**Query** Dear colleague, I am looking for the recorded % Ctrl, RET of the following compound: Cc1cc2c([nH]1)/C=C1\C(=O)Nc3ccc(cc31)-c1cnn(C)c1CN(C)CCN(C)C2=O [Ex. 126]
**Result** 0 % Ctrl

**Query** Dear colleague, I am looking for the recorded % Ctrl, RET of the following compound: Cc1cc2c([nH]1)/C=C1\C(=O)Nc3ccc(cc31)O[C@@H](C)COCCN(C)C2=O [Ex. 92]
**Result** 63 % Ctrl

**Query** Dear colleague, I am looking for the recorded % Ctrl, RET of the following compound: Cc1cc2c([nH]1)/C=C1\C(=O)Nc3ccc(cc31)-c1cnn(C)c1CNCCN(C)C2=O [Ex. 125]
**Result** 0 % Ctrl
